Would you mind telling me the reported AC50 of each entry?
biological target: human PAH with the R408W mutation (A375 R408W cells) (Homo sapiens, UniProt P00439, R408W); construct: expressed in transfected cells; assay: Cell Based Phenylalanine Flux Assay; details: A375 cells expressing R408W PAH; 24 hrs with compound, then 20 μM sepiapterin and 800 μM 13C9,15N-Phenylalanine for 4 hours; 13C-Tyrosine by LC-MS; average where tested multiple times
Sequence (P00439 whole entry R408W): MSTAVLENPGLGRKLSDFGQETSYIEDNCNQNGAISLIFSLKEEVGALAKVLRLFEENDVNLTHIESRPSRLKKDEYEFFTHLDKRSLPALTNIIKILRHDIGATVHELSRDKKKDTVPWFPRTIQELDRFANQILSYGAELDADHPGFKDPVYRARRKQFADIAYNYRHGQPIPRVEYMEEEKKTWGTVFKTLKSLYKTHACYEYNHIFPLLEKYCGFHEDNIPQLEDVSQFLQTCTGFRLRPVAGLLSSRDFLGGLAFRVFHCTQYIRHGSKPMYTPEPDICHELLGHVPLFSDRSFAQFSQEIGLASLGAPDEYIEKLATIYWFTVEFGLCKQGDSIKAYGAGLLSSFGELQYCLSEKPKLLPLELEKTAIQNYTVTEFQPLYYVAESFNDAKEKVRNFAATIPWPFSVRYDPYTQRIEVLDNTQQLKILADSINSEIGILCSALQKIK

What value of AC50 has been recorded for this entry: CC(C)n1nccc1C(=O)N1CCc2[nH]cnc2C1c1nc2cccc(F)c2o1 (centres unmarked)
1 to 5 µM

What value of AC50 has been recorded for this entry: Cc1nnc(C(=O)N2CCc3[nH]cnc3C2c2nc3cc(F)ccc3o2)o1 (centres unmarked)
≥ 5 µM

What value of AC50 has been recorded for this entry: CN1C2CCC1CN(c1ccc3c(C(=O)N4CCc5[nH]cnc5C4c4nc5cc(F)ccc5o4)cnn3c1)C2 (single isomer, unassigned)
1 to 5 µM

What value of AC50 has been recorded for this entry: Cn1cc(-c2nnc(C(=O)N3CCc4[nH]cnc4C3c3nc4ccc(F)cc4o3)o2)cn1 (centres unmarked)
1 to 5 µM

What value of AC50 has been recorded for this entry: COc1cccc2nc(C3c4nc[nH]c4CCN3C(=O)c3cc(C(C)(C)C)nn3C)oc12 (centres unmarked)
1 to 5 µM

What value of AC50 has been recorded for this entry: CN(C)Cc1ccc2c(C(=O)N3CCc4[nH]cnc4C3c3nc4cc(F)ccc4o3)cnn2c1 (centres unmarked)
≥ 5 µM

What value of AC50 has been recorded for this entry: O=C(c1ccn(-c2ccccn2)n1)N1CCc2[nH]cnc2C1c1nc2ccccc2o1 (centres unmarked)
1 to 5 µM

What value of AC50 has been recorded for this entry: Cc1nc(-c2cnn(C)c2)sc1C(=O)N1CCc2[nH]cnc2C1c1nc2cc(F)ccc2o1 (centres unmarked)
≥ 5 µM

What value of AC50 has been recorded for this entry: COCc1ccc2c(C(=O)N3CCc4[nH]cnc4C3c3nc4ccc(C)cc4o3)cnn2c1 (centres unmarked)
1 to 5 µM

What value of AC50 has been recorded for this entry: Cn1nc(C(C)(C)O)cc1C(=O)N1CCc2[nH]cnc2C1c1nc2cc(F)ccc2o1 (centres unmarked)
≥ 5 µM

What value of AC50 has been recorded for this entry: Cn1cc(-c2ncc(C(=O)N3CCc4[nH]cnc4C3c3nc4ccc(Br)cc4o3)o2)cn1 (centres unmarked)
1 to 5 µM
